Data credit: PubChem BioAssay AID602167

# tested_on: transactivating tegument protein VP16 (Human herpesvirus 1), as a GAL4-VP16 activation-domain luciferase reporter
# procedure_details: VP16 transactivation inhibitor potency, dose response, counter-screen for SRC3 inhibitor project, cell-based, luminescence, high throughput, SRC3 series (AID 602167)
# assay_context: VP16 transactivation luciferase reporter cells
Calls of active or inactive are those of the source. How the calls were made is not given here.
Outcomes: 1 = active, 0 = inactive

compound	discrete_label
Nc1ncnc(NCc2ccccc2)c1[N+](=O)[O-]	0
Cc1ccc(/C=C2/SC(=S)N(CCCC(=O)Nc3ccc(O)cc3)C2=O)cc1	0
COc1ccc(-c2nsc3c(N4CCCCC4)ncnc23)cc1	0
CNC(=O)c1cccn(Cc2ccc(C(F)(F)F)cc2)c1=O	0
CCn1nc(/C=C/c2ccccc2)nc2c(=O)n(C)c(=O)nc1-2	1
COc1cc2c(ccc3cc(OC)c(OC)c(O)c32)cc1O	0
O=c1[nH]c2ccccc2n1C1CCN(C(c2cc3ccccc3o2)c2nnnn2Cc2ccccc2)CC1 (stereo not drawn)	0
C=CCOn1c(C)c(C(C)=O)c2c3nonc3ccc21	1
CCCS(=O)(=O)Nc1ccc(Nc2c3ccccc3nc3ccccc23)c(OC)c1	0
Nc1nc(=S)c2ncn([C@@H]3O[C@H](CO)[C@@H](O)[C@H]3O)c2[nH]1	1
Nc1ncccc1C(=O)OCC(=O)N1CCN(S(=O)(=O)c2ccc(Cl)cc2)CC1	1
Oc1ccc(C=NNc2ccccn2)c(O)c1	0
CN(C)c1ccc(C(=S)Nc2ccccc2)cc1	0
c1cc2[nH]snc2c2nc(C3CC3)nc12	1
O=C(Nc1ccccc1Oc1ccccc1)c1cc([N+](=O)[O-])ccc1Cl	0
CC(C)(C)n1ncc2c(=O)n(CC(=O)OCc3ccccc3)cnc21	0
CC(=O)Nc1ccc(SCC(=O)c2cc(C)n(-c3ccccc3)c2C)cc1	0
Cc1c(CC(=O)NCCCC(=O)O)c(=O)oc2cc3c(cc12)CCC(C)(C)O3	0
CCc1ccc(-c2nc(CSCC(=O)NCc3ccco3)c(C)o2)cc1	0
Cc1ccc(NC(=O)c2cc(C)n(-c3ccccc3)c2C)cc1	1
CC(C)(C)c1cc(C(=O)N/N=C/c2ccc(O)cc2)n(-c2ccccc2)n1	0
Nc1nc(CCl)nc(Nc2cccc3ccccc23)n1	0
COc1ccc(/C=C2\CN(Cc3ccccc3)C/C(=C\c3ccc(OC)c(O)c3)C2=O)cc1O	0

----------
Examples of molecules with documented IC50 follow.
# tested_on: transactivating tegument protein VP16 (Human herpesvirus 1), as a GAL4-VP16 activation-domain luciferase reporter
# procedure_details: VP16 transactivation inhibitor potency, dose response, counter-screen for SRC3 inhibitor project, cell-based, luminescence, high throughput, SRC3 series (AID 602167)
# assay_context: VP16 transactivation luciferase reporter cells
endpoint_name: IC50

molecule	endpoint_name	observed
CN(C)c1ccc(CNC(=O)CCNS(=O)(=O)c2cc(Br)cnc2N)cc1	IC50	8.6 µM
Cc1cccc2sc(NNC(=O)c3ccc(S(=O)(=O)N4CC(C)CC(C)C4)cc3)nc12 (stereo not given)	IC50	7.55 µM
NS(=O)(=O)c1ccc(Sc2nc3ccccc3s2)c([N+](=O)[O-])c1	IC50	7.26 µM
CCOc1cc(/C=C2\CCC/C(=C\c3cc(Cl)c(O)c(OCC)c3)C2=O)cc(Cl)c1O	IC50	4.82 µM
COc1cccc(F)c1C(C[N+](=O)[O-])c1c(N)n(C)c(=O)n(C)c1=O (stereo not given)	IC50	5.01 µM

----------
# tested_on: transactivating tegument protein VP16 (Human herpesvirus 1), as a GAL4-VP16 activation-domain luciferase reporter
# procedure_details: VP16 transactivation inhibitor potency, dose response, counter-screen for SRC3 inhibitor project, cell-based, luminescence, high throughput, SRC3 series (AID 602167)
# assay_context: VP16 transactivation luciferase reporter cells
Active and inactive are the calls of the source. No rule for the calls is given here.
Outcome codes: 1 (active), -1 (inactive)

compound	discrete_label
CN(Cc1cnc2nc(N)nc(N)c2n1)c1ccc(C(=O)NC(CCC(=O)O)C(=O)O)cc1 (stereo not given)	-1
Cc1ccc(OCC(=O)c2cc(C)n(-c3ccccc3)c2C)c([N+](=O)[O-])n1	-1
COCCNC(=O)c1cc(-c2ccccn2)nc2ccc(S(=O)(=O)N3CCC(C)CC3)cc12	-1
CC(C)(C)c1ccc(-c2noc(CCC(=O)Nc3cccnc3)n2)cc1	-1
Cc1ccc(/C=C2\SC(=S)N(CCCC(=O)NC3CCCC3)C2=O)cc1	1
O=C(NC1CCCCC1)C(c1cccnc1)N(C(=O)CCl)c1cccc(Cl)c1 (stereo not given)	1
c1csc(Cc2nn3c(-c4ccncc4)nnc3s2)c1	-1
CO[C@@]12[C@@H]3N[C@@H]3CN1C1=C(C(=O)C(N)=C(C)C1=O)[C@@H]2COC(N)=O	-1
O=c1[nH]c2ccccc2n1C1CCN(C(c2ccccc2)c2nnnn2-c2ccc3c(c2)OCCO3)CC1 (stereo not given)	-1
CC(=O)c1cccc(-c2csc3ncnc(Sc4nnnn4C)c23)c1	1

----------
# tested_on: transactivating tegument protein VP16 (Human herpesvirus 1), as a GAL4-VP16 activation-domain luciferase reporter
# procedure_details: VP16 transactivation inhibitor potency, dose response, counter-screen for SRC3 inhibitor project, cell-based, luminescence, high throughput, SRC3 series (AID 602167)
# assay_context: VP16 transactivation luciferase reporter cells
Active and inactive are the calls of the source. The rule behind the calls is not given here.
Labels: T (active), F (inactive)

compound	discrete_label
Fc1ccccc1-c1csc(=Nc2cccnc2)n1CCCn1ccnc1	T
O=C(NCc1ccccc1)c1c(Cl)nc(Cl)c(Cl)c1Cl	F
O=[N+]([O-])c1nn(-c2ccc3c(c2)OCCO3)n(O)c1=Nc1ccccc1	T
COc1ccc(-c2cn[nH]c2-c2ccc(OC)cc2O)cc1	T
COc1cc2[nH]c3c(Cl)ncnc3c2cc1OC	F
CCC(=O)N1CCN(c2ccnc3cc(Cl)ccc23)CC1	F
O=c1[nH]c(O)c(N=Nc2ccc3c(c2)OCCO3)c(=O)[nH]1	F
COc1ccc(C(C(=O)NC2CCCCC2)N(C(=O)CCl)c2ccc(Cl)cc2)cc1 (stereo unspecified)	T
NC(=O)c1sc2nc3c(c(-c4ccco4)c2c1N)CCC3	T
COc1cc(/C=N/NC(N)=S)cc(Br)c1OCc1ccccc1F	F
C=CCn1c(O)c(C(C)=NCc2cc(OC)cc(OC)c2)c(=O)[nH]c1=O	F

----------
# tested_on: transactivating tegument protein VP16 (Human herpesvirus 1), as a GAL4-VP16 activation-domain luciferase reporter
# procedure_details: VP16 transactivation inhibitor potency, dose response, counter-screen for SRC3 inhibitor project, cell-based, luminescence, high throughput, SRC3 series (AID 602167)
# assay_context: VP16 transactivation luciferase reporter cells
Activity calls are given as the source filed them. No rule for the calls is given here.
Possible outcomes: active, inactive

compound	discrete_label
Cc1ccc2occ(/C=N/NC(=O)c3ccccc3Br)c(=O)c2c1	active
O=C(COc1ccc(Cl)cc1)Nc1ccc(C(=O)NCc2cccnc2)cc1	inactive
Cc1sc2ncnc(N3CCC(C(=O)Nc4ccccc4C(C)(C)C)CC3)c2c1C	active
C(=Cc1cnc2ccccc2n1)c1ccc2c(c1)OCO2	inactive
O=C(CCl)N1N=C(c2ccco2)CC1c1ccco1 (stereo unspecified)	inactive
CCOC(=O)C(C(C)=O)c1c(Br)c(O)c(O)c2c(C(=O)c3ccc(C)cc3)coc12 (stereo unspecified)	active
CCCC(=O)NC(c1ccc2c(c1)OCO2)c1cc(Cl)c2cccnc2c1O (stereo unspecified)	active
CN(Cc1cnc2nc(N)nc(N)c2n1)c1ccc(C(=O)NC(CCC(=O)O)C(=O)O)c2ccccc12 (stereo unspecified)	inactive
Nc1ccc(-c2cc3ccccc3oc2=O)cc1	inactive
CCOC(=O)CC(=O)CSc1nccc(-c2cccnc2)n1	inactive
COC(CN(C(=O)CCl)C(C(=O)NC1CCCCC1)c1ccccc1C)OC (stereo unspecified)	active

----------
# tested_on: transactivating tegument protein VP16 (Human herpesvirus 1), as a GAL4-VP16 activation-domain luciferase reporter
# procedure_details: VP16 transactivation inhibitor potency, dose response, counter-screen for SRC3 inhibitor project, cell-based, luminescence, high throughput, SRC3 series (AID 602167)
# assay_context: VP16 transactivation luciferase reporter cells
Activity calls are given as the source filed them. How the calls were made is not given here.
Labels: Y for active, N for inactive

compound	discrete_label
O=C(N/N=C\c1ccc([N+](=O)[O-])s1)c1cncc(Br)c1	Y
COc1ccc(/C=C2/SC(=S)N(CCC(=O)O)C2=O)cc1	N
COc1cccc(NC(=O)CSc2nnc(-c3cc(C)n(-c4ccccc4)c3C)o2)c1	Y
COC(=O)c1cccc2c1-c1ccccc1/C2=N/O	Y
CN1C(=O)C2(C(C#N)=C(N)N(c3cc(Cl)cc(Cl)c3)C3=C2C(=O)CC(C)(C)C3)c2ccccc21 (stereo unspecified)	N
COc1ccc(-n2cnc3c(sc4nccc(N(C)C)c43)c2=O)cc1	N
CC1(C)N=C(N)N=C(N)N1CCCCc1ccccc1	Y
Nc1ccc(Oc2ccccc2-c2ccccc2)cc1	N
Cc1cccc(C)c1NS(=O)(=O)c1ccc(-c2cnc(C3CC3)o2)cc1	N
CCN(C(C)=O)c1cnc(C=NNC(N)=S)c2ccccc12	Y
COc1cc(C(=O)N/N=C(\c2ccccc2)c2ccccn2)cc(OC)c1OC	Y
